Test system: Serratia marcescens No. 2
Assay: Minimum inhibitory concentration (MIC) in vitro, antibacterial spectrum
Assay type: cell-based
Measured Endpoint: Minimum inhibitory concentration (MIC)

[
  {
    "Compound": "CCN1CCN(C(=O)NC(C(=O)N[C@@H]2C(=O)N3C(C(=O)O)=C(CSc4nc(=O)c(O)nn4C)[C@H](C)O[C@H]23)c2csc(N)n2)C(=O)C1=O (single isomer, unassigned) [Compound No. 5]",
    "Measured": 0.39
  },
  {
    "Compound": "Cn1nc(O)c(=O)nc1SCC1=C(C(=O)O)N2C(=O)[C@@H](NC(=O)C(NC=O)c3csc(N)n3)[C@H]2OC1 (stereo partly drawn) [Compound No. 8]",
    "Measured": 0.20
  },
  {
    "Compound": "CO/N=C(\\C(=O)N[C@@H]1C(=O)N2C(C(=O)O)=C(CSc3nc(=O)c(O)nn3C)CO[C@H]12)c1csc(N)n1 [Compound No. 3]",
    "Measured": 0.39
  },
  {
    "Compound": "CO/N=C(\\C(=O)N[C@@H]1C(=O)N2C(C(=O)O)=C(CSc3nc(=O)c(O)nn3C)[C@H](C)O[C@H]12)c1csc(N)n1 [Compound No. 1]",
    "Measured": 0.39
  },
  {
    "Compound": "C[C@@H]1O[C@@H]2[C@H](NC(=O)C(NC=O)c3csc(N)n3)C(=O)N2C(C(=O)O)=C1CSc1nc(=O)c(O)nn1C (stereo partly drawn) [Compound No. 6]",
    "Measured": 0.20
  }
]

[I] CCO/N=C(\C(=O)N[C@@H]1C(=O)N2C(C(=O)O)=C(CSc3nc(=O)c(O)nn3C)[C@H](C)O[C@H]12)c1csc(N)n1 [Compound No. 2]
[II] CO[C@@]1(NC(=O)C(C(=O)O)c2ccc(O)cc2)C(=O)N2C(C(=O)O)=C(CSc3nnnn3C)CO[C@@H]21 (stereo partly drawn) [Latamoxef, reference compound]
[in] Returns the identifier with the smallest measured Minimum inhibitory concentration (MIC) among I and II . Answer format: the label of the selected item.
[out] II

[1] CCN1CCN(C(=O)NC(C(=O)N[C@@H]2C(=O)N3C(C(=O)O)=C(CSc4nc(=O)c(O)nn4C)CO[C@H]23)c2csc(N)n2)C(=O)C1=O (single isomer, unassigned) [Compound No. 7]
[2] CO/N=C(\C(=O)N[C@@H]1C(=O)N2C(C(=O)O)=C(CSc3nc(=O)c(=O)[nH]n3C)CS[C@H]12)c1csc(N)n1 [Ceftriaxone, reference compound]
[in] Returns the identifier with the smallest measured Minimum inhibitory concentration (MIC) among 1 and 2 . Answer format: the label of the selected item.
[out] 2

====

Test system: Pseudomonas aeruginosa MB3833
Experiment: Minimum inhibitory concentration (MIC) in vitro, antibacterial spectrum
Format: cell-based
Measured Endpoint: Minimum inhibitory concentration (MIC)

[A] CCO/N=C(\C(=O)N[C@@H]1C(=O)N2C(C(=O)O)=C(CSc3nc(=O)c(O)nn3C)CO[C@H]12)c1csc(N)n1 [Compound No. 4]
[B] Cn1nc(O)c(=O)nc1SCC1=C(C(=O)O)N2C(=O)[C@@H](NC(=O)C(NC=O)c3csc(N)n3)[C@H]2OC1 (stereo partly drawn) [Compound No. 8]
[C] CO/N=C(\C(=O)N[C@@H]1C(=O)N2C(C(=O)O)=C(CSc3nc(=O)c(O)nn3C)CO[C@H]12)c1csc(N)n1 [Compound No. 3]
[D] CCN1CCN(C(=O)NC(C(=O)N[C@@H]2C(=O)N3C(C(=O)O)=C(CSc4nc(=O)c(O)nn4C)[C@H](C)O[C@H]23)c2csc(N)n2)C(=O)C1=O (single isomer, unassigned) [Compound No. 5]
[in] Output the entries ranked by Minimum inhibitory concentration (MIC) from maximum down to minimum. When ranking, write the labels in the order the request describes.
[out] B, C, A, D
(B: 100, C: 25, A: 6.25, D: 3.13)

[a] C[C@@H]1O[C@@H]2[C@H](NC(=O)C(NC=O)c3csc(N)n3)C(=O)N2C(C(=O)O)=C1CSc1nc(=O)c(O)nn1C (stereo partly drawn) [Compound No. 6]
[b] CO[C@@]1(NC(=O)C(C(=O)O)c2ccc(O)cc2)C(=O)N2C(C(=O)O)=C(CSc3nnnn3C)CO[C@@H]21 (stereo partly drawn) [Latamoxef, reference compound]
[in] Which value of Minimum inhibitory concentration (MIC) is greater, the one for a or the one for b ? Answer format: the label of the selected item.
[out] a
(a: 100, b: 6.25)

====

Test system: Pseudomonas aeruginosa MB3833
Assay: Minimum inhibitory concentration (MIC) in vitro, antibacterial spectrum
Format: cell-based
Measured Endpoint: Minimum inhibitory concentration (MIC)

Recorded Minimum inhibitory concentration (MIC), per entry:
[
  {
    "Molecule": "CO/N=C(\\C(=O)N[C@@H]1C(=O)N2C(C(=O)O)=C(CSc3nc(=O)c(=O)[nH]n3C)CS[C@H]12)c1csc(N)n1 [Ceftriaxone, reference compound]",
    "Minimum inhibitory concentration (MIC)": 50
  },
  {
    "Molecule": "CCN1CCN(C(=O)NC(C(=O)N[C@@H]2C(=O)N3C(C(=O)O)=C(CSc4nc(=O)c(O)nn4C)CO[C@H]23)c2csc(N)n2)C(=O)C1=O (single isomer, unassigned)",
    "Minimum inhibitory concentration (MIC)": 12.5
  }
]

[a] CCO/N=C(\C(=O)N[C@@H]1C(=O)N2C(C(=O)O)=C(CSc3nc(=O)c(O)nn3C)[C@H](C)O[C@H]12)c1csc(N)n1
[b] CO/N=C(\C(=O)N[C@@H]1C(=O)N2C(C(=O)O)=C(CSc3nc(=O)c(O)nn3C)[C@H](C)O[C@H]12)c1csc(N)n1
[in] Returns the identifier with the smallest measured Minimum inhibitory concentration (MIC) among a and b . Answer format: the label of the selected item.
[out] b
(b: 6.25, a: 12.5)

====

Test system: Escherichia coli GN206
Assay: Minimum inhibitory concentration (MIC) in vitro, antibacterial spectrum
Format: cell-based
Measured Endpoint: Minimum inhibitory concentration (MIC)

Recorded Minimum inhibitory concentration (MIC), per entry:
[
  {
    "Compound": "CO[C@@]1(NC(=O)C(C(=O)O)c2ccc(O)cc2)C(=O)N2C(C(=O)O)=C(CSc3nnnn3C)CO[C@@H]21 (stereo partly shown) [Latamoxef, reference compound]",
    "Minimum inhibitory concentration (MIC)": 0.39
  },
  {
    "Compound": "CCO/N=C(\\C(=O)N[C@@H]1C(=O)N2C(C(=O)O)=C(CSc3nc(=O)c(O)nn3C)[C@H](C)O[C@H]12)c1csc(N)n1",
    "Minimum inhibitory concentration (MIC)": 0.78
  }
]

[P] CO/N=C(\C(=O)N[C@@H]1C(=O)N2C(C(=O)O)=C(CSc3nc(=O)c(O)nn3C)[C@H](C)O[C@H]12)c1csc(N)n1
[Q] Cn1nc(O)c(=O)nc1SCC1=C(C(=O)O)N2C(=O)[C@@H](NC(=O)C(NC=O)c3csc(N)n3)[C@H]2OC1 (stereo partly shown)
[in] Returns the identifier with the smallest measured Minimum inhibitory concentration (MIC) among P and Q . Answer format: the label of the selected item.
[out] P

====

System: Staphylococcus aureus Smith
Assay: Minimum inhibitory concentration (MIC) in vitro, antibacterial spectrum
Type: cell-based
Measured Endpoint: Minimum inhibitory concentration (MIC)

[I] CO/N=C(\C(=O)N[C@@H]1C(=O)N2C(C(=O)O)=C(CSc3nc(=O)c(O)nn3C)CO[C@H]12)c1csc(N)n1
[II] CO[C@@]1(NC(=O)C(C(=O)O)c2ccc(O)cc2)C(=O)N2C(C(=O)O)=C(CSc3nnnn3C)CO[C@@H]21 (stereo partly drawn) [Latamoxef, reference compound]
[in] Which value of Minimum inhibitory concentration (MIC) is greater, the one for I or the one for II ? Answer format: the label of the selected item.
[out] II
(II: 3.13, I: 0.78)

====

Tested on: Staphylococcus aureus 209 P JC-1
Assay: Minimum inhibitory concentration (MIC) in vitro, antibacterial spectrum
Format: cell-based
Measured Endpoint: Minimum inhibitory concentration (MIC)

Recorded Minimum inhibitory concentration (MIC), per entry:
[
  {
    "Molecule": "Cn1nc(O)c(=O)nc1SCC1=C(C(=O)O)N2C(=O)[C@@H](NC(=O)C(NC=O)c3csc(N)n3)[C@H]2OC1 (stereo partly shown) [Compound No. 8]",
    "Minimum inhibitory concentration (MIC)": 1.56
  },
  {
    "Molecule": "CCO/N=C(\\C(=O)N[C@@H]1C(=O)N2C(C(=O)O)=C(CSc3nc(=O)c(O)nn3C)CO[C@H]12)c1csc(N)n1 [Compound No. 4]",
    "Minimum inhibitory concentration (MIC)": 0.78
  },
  {
    "Molecule": "CCN1CCN(C(=O)NC(C(=O)N[C@@H]2C(=O)N3C(C(=O)O)=C(CSc4nc(=O)c(O)nn4C)[C@H](C)O[C@H]23)c2csc(N)n2)C(=O)C1=O (single isomer, unassigned) [Compound No. 5]",
    "Minimum inhibitory concentration (MIC)": 1.56
  },
  {
    "Molecule": "C[C@@H]1O[C@@H]2[C@H](NC(=O)C(NC=O)c3csc(N)n3)C(=O)N2C(C(=O)O)=C1CSc1nc(=O)c(O)nn1C (stereo partly shown) [Compound No. 6]",
    "Minimum inhibitory concentration (MIC)": 0.78
  },
  {
    "Molecule": "CO/N=C(\\C(=O)N[C@@H]1C(=O)N2C(C(=O)O)=C(CSc3nc(=O)c(=O)[nH]n3C)CS[C@H]12)c1csc(N)n1 [Ceftriaxone, reference compound]",
    "Minimum inhibitory concentration (MIC)": 1.56
  }
]

[1] CCO/N=C(\C(=O)N[C@@H]1C(=O)N2C(C(=O)O)=C(CSc3nc(=O)c(O)nn3C)[C@H](C)O[C@H]12)c1csc(N)n1 [Compound No. 2]
[2] CO/N=C(\C(=O)N[C@@H]1C(=O)N2C(C(=O)O)=C(CSc3nc(=O)c(O)nn3C)[C@H](C)O[C@H]12)c1csc(N)n1 [Compound No. 1]
[in] Returns the identifier with the smallest measured Minimum inhibitory concentration (MIC) among 1 and 2 . Answer format: the label of the selected item.
[out] 2
